- System: EKVX
- test.details: NCI tumour cell line growth inhibition, 48 h
The source made the active and inactive calls. Rule as the data show it: active = GI50 up to about 1.1 µM and inactive = higher.
readout.label: GI50

molecule="CC[C@H]1OC([C@H](O)C/C=C\\C#C[Si](C)(C)C)C/C=C\\C[C@H]1O[Si](C)(C)C(C)(C)C (stereo not given in full)" readout_label=GI50 recorded_result="> 100 µM (inactive)"
molecule="COC(=O)[C@]1(c2cc3ccccc3n2S(=O)(=O)c2ccccc2)CC2CN(C(C)=O)C1CC2=O (stereo not given in full)" readout_label=GI50 recorded_result="2.02 µM (inactive)"
molecule="Brc1cc(CCOC2CCCCO2)c(-c2sccc2CCOC2CCCCO2)s1 (stereo not given)" readout_label=GI50 recorded_result="47.6 µM (inactive)"
molecule=CC(/C=N\NC(=S)N1CCCCC1)=N/NC(=S)N1CCCCC1 readout_label=GI50 recorded_result="1.88 µM (inactive)"
molecule=CCOc1ccccc1/N=C\c1c2ccccc2cc2ccccc12 readout_label=GI50 recorded_result="18.1 µM (inactive)"
molecule="CN(C)CC1CCCC/C1=N\\OC(=O)c1ccccc1 (stereo not given)" readout_label=GI50 recorded_result="> 100 µM (inactive)"
molecule=CCOC(=O)N1CCN(c2nc(C)n(-c3ccccc3)c(=S)c2C#N)CC1 readout_label=GI50 recorded_result="> 82.2 µM (inactive)"
molecule=Cc1cc2c(cc1C)[n+]([O-])c(C(=O)C/C(=N/NC(=S)NN)C(=O)Nc1cccc(C(F)(F)F)c1)c[n+]2[O-] readout_label=GI50 recorded_result="> 100 µM (inactive)"
molecule=CC(C)CCNc1ncnc2[nH]ncc12 readout_label=GI50 recorded_result="26.4 µM (inactive)"
molecule=CCOC(=O)/C(ON)=C(/CC/C(C(=O)OC)=C(\ON)C(=O)OCC)C(=O)OC readout_label=GI50 recorded_result="> 100 µM (inactive)"

// sample O=C(SCc1cccc2ccccc12)c1ccc(Cl)cc1 , its GI50 was 80 µM (inactive)

// sample OC1(c2ccc(Cl)cc2)c2ccccc2-c2nc3ccccc3n21 (stereo not given) , its GI50 was 84.7 µM (inactive)

// sample CCOP(=O)(OCC)[C@H](O)c1ccsc1 , its GI50 was > 100 µM (inactive)

// sample N#CC(C#N)=CSc1ccccc1 , its GI50 was 48.2 µM (inactive)

// sample COc1ccc2c(c1)OC(c1ccccc1O)CC2=O (stereo not given) , its GI50 was 96.8 µM (inactive)

// sample O=C1CCCC/C1=C\c1ccc([N+](=O)[O-])cc1 , its GI50 was 39.6 µM (inactive)

// sample CCC1(C(=O)OC)CCc2c(OC)ccc(OC)c2C1=O (stereo not given) , its GI50 was > 100 µM (inactive)

// sample COC(=O)N[C@H](C(=O)NC(OCc1ccccc1)C1COC(C)(C)O1)C(C)O[Si](C)(C)C(C)(C)C (stereo not given in full) , its GI50 was > 100 µM (inactive)

// sample O=C1/C(=C/c2ccccc2[N+](=O)[O-])N=C(c2ccccc2)N1C1Nc2cc3c(cc2S1)NC(N1C(=O)/C(=C/c2ccccc2[N+](=O)[O-])N=C1c1ccccc1)S3 (stereo not given) , its GI50 was 27.7 µM (inactive)

// sample COC(=O)Nc1nc2cc(S(=O)(=O)Nc3ccccn3)ccc2[nH]1 , its GI50 was > 100 µM (inactive)
